Tested on: phosphorylation of AKT (pAKT) in T47D cells expressing mutant PI3Ka (H1047R)
ASSAY EXPLANATION: In vitro cell pAKT (Ser473) HTRF, T47D cells
Format: cell-based
CONDITION SUMMARY: Homo sapiens, T47D, 6 h, cellular pAKT, T47D cells, mutant PI3Ka (H1047R), 6 hours; read-out: Avg T-47D IC50
pIC50: −log10 of the molar value.
OBSERVED PROPERTY: pIC50

| COMPOUND | pIC50 |
| --- | --- |
| Cc1cc([C@@H](C)Nc2ccccc2C(=O)O)c2cc(-c3cnc(C4CC4)s3)n(C)c(=O)c2c1 | 6.30 to 9.00 |
| Cc1cc([C@@H](C)Nc2ccc(Cl)nc2C(=O)O)c2cc(N3CCN(C4COC4)CC3)n(C)c(=O)c2c1 | 5.70 to 6.30 |
| Cc1cc([C@@H](C)Nc2nccnc2C(=O)O)c2cc(N3CCN(CC(F)(F)F)CC3)n(C)c(=O)c2c1 | 5.70 to 6.30 |
| C[C@@H](Nc1ccccc1C(=O)O)c1cc(F)cc2c(=O)n(C)c(-c3cnc(-c4nccs4)c(F)c3)cc12 | 6.30 to 9.00 |
| Cc1cc([C@@H](C)Nc2cnsc2C(=O)O)c2cc(N3CCN(CC(F)(F)F)CC3)n(C)c(=O)c2c1 | 4.82 to 5.70 |
| Cc1cc([C@@H](C)Nc2ccccc2C(=O)O)c2cc(N3CC[C@]4(CCCN(CC(F)(F)F)C4)C3)n(C)c(=O)c2c1 | 6.30 to 9.00 |
| Cc1cc(C(C)Nc2ccccc2C(=O)O)c2cc(-c3cc4ccc(F)cc4[nH]3)n(C)c(=O)c2c1 (centres unmarked) | 6.30 to 9.00 |

Continue with the compound presented below.
*Q* Kindly indicate its recorded pIC50. Item: C[C@@H](Nc1cccc(F)c1C(=O)O)c1cc(F)cc2c(=O)n(C)c(-c3ccc(OC4CC4)nc3)cc12
*A* 6.30 to 9.00
